# Test system: HepG2 cells
# experiment: XTT cytotoxicity assay
# Assay type: cell-based
# test-settings: Homo sapiens; HepG2 cells, cytotoxicity; read-out: XTT HepG2 IC50
reported-property: IC50 (µg/mL)
Kindly answer with a numeric value in µg/mL, unit omitted.

Record excerpt, results attached:
{"compound": "FC(F)(F)c1ccc(Oc2ccc(-c3noc(-c4ccc5[nH]ccc5c4)n3)cc2)cc1 [Compound 75b]", "test-result": 75.7}
{"compound": "FC(F)(F)c1ccc(Oc2ccc(-c3noc(-c4c[nH]cn4)n3)cc2)cc1 [Compound 76b]", "test-result": 31.5}
{"compound": "Oc1ccc(-c2nc(-c3ccc(Oc4ccc(C(F)(F)F)cc4)cc3)no2)cc1 [Compound 1]", "test-result": 25.8}
{"compound": "FC(F)(F)c1ccc(Oc2ccc(-c3noc(-c4n[nH]cc4Cl)n3)cc2)cc1 [Compound 60b]", "test-result": 24.1}
{"compound": "C#Cc1c[nH]nc1-c1nc(-c2ccc(Oc3ccc(C(F)(F)F)cc3)cc2)no1 [Compound 66b]", "test-result": 9.8}

# context switch: different compound, same IC50
Q) Could you tell me which IC50 is on file for Fc1ccc(Oc2ccc(-c3noc(-c4n[nH]cc4Cl)n3)cc2)cc1 [Compound 60c] ?
A) 18.2

----------
MIC overview
# Test system: S. pyogenes ATCC 49399
# experiment: MIC determination
# Assay type: cell-based
# test-settings: Streptococcus pyogenes, ATCC49399; Table 1; read-out: MIC
# From the text: The ESKAPE organisms (E. faecium NCTC (ATCC 19734), S. aureus ATCC 29213, K. pneumonia ATCC 700603, A. baumannii ATCC 17961, P. aeruginosa ATCC 17853, E. aerogenes ATCC 35029) and E. coli ATCC 25922) in the initial screen, S. aureus ATCC 27660, S. epidermis ATCC 35547, S. haemolyticus ATCC 29970, S. oralis ATCC 9811, S. pyogenes ATCC 49399, B. cereus ATCC 13061, B. licheniformis ATCC 12759, and E. faecalis ATCC 29212 were purchased from the American Type Culture Collection (Manassas, Va., USA). […]
The reply should contain only the number, in µg/mL.

{"compound": "Oc1ccc(-c2nc(-c3ccc(Oc4ccc(C(F)(F)F)cc4)cc3)no2)cc1", "MIC (µg/mL)": 32}

Q) Item CC(=O)NC[C@H]1CN(c2ccc(N3CCOCC3)c(F)c2)C(=O)O1 [linezolid, reference compound] with S. pyogenes ATCC 49399 - MIC?
A) 1

Q) Next compound: FC(F)(F)c1ccc(Oc2ccc(-c3noc(-c4ccc5[nH]ccc5c4)n3)cc2)cc1 [Compound 75b]
A) 64

Q) Subsequent entry: FC(F)(F)c1ccc(Oc2ccc(-c3noc(-c4c[nH]cn4)n3)cc2)cc1 [Compound 76b]
A) 128

----------
Parameter AUC0-8 h: see the listing below.
# experiment: Fast pharmacokinetic (PK) studies
# Format: in vivo, mouse
# test-settings: single iv dose at 20 mg/kg, mice
State just the number; it will be interpreted in µg·min/mL.

{"molecule": "Fc1ccc(Oc2ccc(-c3noc(-c4n[nH]cc4Cl)n3)cc2)cc1 [Compound 60c]", "AUC0-8 h (µg·min/mL)": 446}

Q) Dear colleague, I am looking for the recorded AUC0-8 h of the following molecule: C#Cc1c[nH]nc1-c1nc(-c2ccc(Oc3ccc(C(F)(F)F)cc3)cc2)no1 [Compound 66b]
A) 8261

Q) Also check FC(F)(F)c1ccc(Oc2ccc(-c3noc(-c4n[nH]cc4Cl)n3)cc2)cc1 [Compound 60b]
A) 910
